These entries and their values trace back to ChEMBL document CHEMBL3217654.

# Species on record: Rattus norvegicus
# test.method.notes: Antiinflammatory activity in rat rMC-1 cells assessed as decrease of high glucose-induced TNFalpha level at 0.05 to 10 uM after 1 to 24 hrs by ELISA
# Assay type: functional, cell-based
Active and inactive are the calls of the source. No cut-off for these calls is given here.
Your reply should match one of these outcome classes. active, inactive

Oc1ccc([C@@H](O)CNCCCN2CCOCC2)cc1O : inactive

Query: For `O=C(NCCN(C[C@H](O)c1ccc(O)c(O)c1)C(=O)N1CCOCC1)N1CCOCC1` , what call appears in the results of this test?
Result: inactive

---

# Species: Rattus norvegicus
# test.method.notes: Antiinflammatory activity in rat rMC-1 cells assessed as decrease of high glucose-induced TNFalpha level at 0.05 to 10 uM after 1 to 24 hrs by ELISA
# Assay type: functional, cell-based
Active and inactive are the calls of the source. The rule behind the calls is not given here.
Your reply should match one of these outcome classes. active, inactive

CC(C)NC[C@H](O)c1ccc(O)c(O)c1 (stereo in doubt; R-1) : active
CC(C)NC[C@H](O)c1ccc(O)c(O)c1 (stereo in doubt; S-1) : active

Query: For `O=C(NC[C@H](O)c1ccc(O)c(O)c1)N1CCOCC1` , what call appears in the results of this test?
Result: inactive
